# target under test: MAGE-A11:PCF11 interaction (GST-MAGE-A11 and FAM-PCF11_4) (Homo sapiens)
# Construct: GST-MAGE-A11 MHD (human MAGE-A11 MHD amino acid 218-429); made in house; host or cells: E. coli BL21(DE3)
# Sequence (P43364 218-429): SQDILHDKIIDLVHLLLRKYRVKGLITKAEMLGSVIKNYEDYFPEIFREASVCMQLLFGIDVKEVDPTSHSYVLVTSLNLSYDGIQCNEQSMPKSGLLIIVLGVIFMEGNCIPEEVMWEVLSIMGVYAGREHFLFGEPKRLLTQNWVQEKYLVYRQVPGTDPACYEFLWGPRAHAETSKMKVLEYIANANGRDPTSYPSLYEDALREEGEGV
# assay: TR-FRET primary / single point screen at 15 µM
# Type: binding
# condition summary: single point TR-FRET screening of 797 quinoline compounds against MAGE-A11:PCF11
observed property: percent inhibition (TR-FRET)

>  <compound>
Oc1ccccc1CN1CCC(Nc2ccnc3cc(Cl)ccc23)CC1 [SJ000357529]

>  <percent inhibition (TR-FRET)>
22.1466

$$$$
>  <compound>
COc1ccc(CN(CCCCNc2ccnc3cc(Cl)ccc23)Cc2ccccc2)cc1 [SJ000522724]

>  <percent inhibition (TR-FRET)>
6.683

$$$$
>  <compound>
Clc1ccc2c(NCCCCN(Cc3ccccc3)CC3CC3)ccnc2c1 [SJ000357485]

>  <percent inhibition (TR-FRET)>
18.3422

$$$$

For every item below, please supply its percent inhibition (TR-FRET).
1. CCc1ccc2ncc(S(=O)(=O)c3ccc(OC)cc3)c(N3CCN(c4ccccc4)CC3)c2c1 [SJ000117056]
2. CCc1ccc2ncc(S(=O)(=O)c3ccc(C)c(C)c3)c(N3CCN(C)CC3)c2c1 [SJ000247332]
3. CC(=O)Nc1ccc(S(=O)(=O)N2CCN(c3ccnc4cc(Cl)ccc34)CC2)cc1 [SJ000193862]
4. Clc1ccc2c(NCCCCN(Cc3ccccc3)Cc3ccc4c(c3)OCO4)ccnc2c1 [SJ000522723]
5. CCN(CC)CC(=O)Nc1c2c(nc3ccccc13)N(C)CC2 [SJ000331537]
6. O=S(=O)(c1ccc(Br)cc1)N1CCN(c2ccnc3cc(Cl)ccc23)CC1 [SJ000201754]

a:
1. -2.791
2. 2.973
3. -16.1911
4. 16.5062
5. 11.7837
6. -16.7513

For every item below, please supply its percent inhibition (TR-FRET).
1. COc1cccc(CN(CCCCNc2ccnc3cc(Cl)ccc23)Cc2ccccc2)c1 [SJ000361210]
2. CCc1ccc2ncc(S(=O)(=O)c3ccc(C)c(C)c3)c(N3CCN(CC)CC3)c2c1 [SJ000247334]

a:
1. 11.7175
2. -4.712

For every item below, please supply its percent inhibition (TR-FRET).
1. CCOC(=O)c1cnc2c(C)cc(Cl)cc2c1NCCN1CCOCC1 [SJ000129560]
2. CCCN(CCCNc1c2ccc(Cl)cc2nc2ccc(OC)cc12)Cc1cccn1C [SJ000522987]
3. COc1ccc2ncc(S(=O)(=O)c3ccccc3)c(N3CCN(C)CC3)c2c1 [SJ000083947]
4. Clc1ccc2c(NCCCCN(Cc3ccccc3)Cc3ccc[nH]3)ccnc2c1 [SJ000312692]

a:
4.96
-302.626
-2.0938
28.2792

For every item below, please supply its percent inhibition (TR-FRET).
1. COc1ccccc1N1CCN(c2c(S(=O)(=O)c3ccc(C)cc3)cnc3ccccc23)CC1 [SJ000117065]
2. O=S(=O)(c1ccc(F)cc1)c1cnc2ccc(Cl)cc2c1N1CCN(c2ccc(F)cc2)CC1 [SJ000117063]
3. Cc1cccc(CN2CCC(Nc3ccnc4cc(Cl)ccc34)CC2)c1 [SJ000523101]

a:
1. -8.687
2. -4.205
3. 18.5377

====

# assay: Solubility assay (μSOL Evolution)
# Type: physicochemical
# condition summary: 18 h at RT
Field 'label' (enum: MET / NOT MET). Set to MET when Solubility is strictly under 60 µM; else NOT MET.

Illustrative cases are given below, each with its answer.
>  <compound>
CC(C)(C)c1ccc(-c2ccc3c(NCCCNCc4ccc5[nH]ccc5c4)ccnc3c2)cc1

>  <assigned category>
MET

$$$$
>  <compound>
FC(F)(F)c1cc(-c2ccc3c(NCCCNCc4ccc5[nH]ccc5c4)ccnc3c2)cc(C(F)(F)F)c1

>  <assigned category>
MET

$$$$

q: Please check: Solubility for "Brc1ccc2c(NCCCNCc3ccc4[nH]ccc4c3)ccnc2c1" , strictly under 60 µM or not?
a: MET

q: Please check: Solubility for "FC(F)(F)c1ccc2c(NCCCNCc3ccco3)ccnc2c1" , strictly under 60 µM or not?
a: NOT MET

q: Please check: Solubility for "FC(F)(F)c1ccc2c(NCCCNCc3ccc4c(c3)OCO4)ccnc2c1" , strictly under 60 µM or not?
a: NOT MET

q: Please check: Solubility for "C=CC(=O)N(CCCNc1ccnc2ccccc12)Cc1ccc2[nH]ccc2c1" , strictly under 60 µM or not?
a: MET

====

# target under test: MAGE-A11:PCF11 interaction (GST-MAGE-A11 and FAM-PCF11_4) (Homo sapiens, UniProt P43364)
# Construct: GST-MAGE-A11 MHD (human MAGE-A11 MHD amino acid 218-429); made in house; host or cells: E. coli BL21(DE3)
# assay: TR-FRET primary / single point screen at 15 µM
# Assay type: binding
# condition summary: single point TR-FRET screening of quinoline compounds against MAGE-A11:PCF11; 15 µM
I'd appreciate it if you could supply percent inhibition (TR-FRET) values for the items below.
Give bare numbers.

The following molecules have reported results that may help.
>  <molecule>
Clc1ccc2c(NCCCN(Cc3ccccc3)Cc3cccnc3Br)ccnc2c1 [SJ000520462]

>  <target under test>
MAGE-A11:PCF11 interaction (GST-MAGE-A11 and FAM-PCF11_4) (Homo sapiens, UniProt P43364)

>  <percent inhibition (TR-FRET)>
9.715

$$$$
>  <molecule>
Fc1ccc(Cc2ccc3c(NCCCNCc4ccco4)ccnc3c2)c(Cl)c1 [SJ000311322]

>  <target under test>
MAGE-A11:PCF11 interaction (GST-MAGE-A11 and FAM-PCF11_4) (Homo sapiens, UniProt P43364)

>  <percent inhibition (TR-FRET)>
24.7681

$$$$
>  <molecule>
Cn1cccc1CNCCCNc1ccnc2cc(C(F)(F)F)ccc12 [SJ000521041]

>  <target under test>
MAGE-A11:PCF11 interaction (GST-MAGE-A11 and FAM-PCF11_4) (Homo sapiens, UniProt P43364)

>  <percent inhibition (TR-FRET)>
-6.879

$$$$
>  <molecule>
FC(F)(F)c1ccc2c(NCCCNCc3ccc[nH]3)ccnc2c1 [SJ000361105]

>  <target under test>
MAGE-A11:PCF11 interaction (GST-MAGE-A11 and FAM-PCF11_4) (Homo sapiens, UniProt P43364)

>  <percent inhibition (TR-FRET)>
41.6887

$$$$
>  <molecule>
Clc1ccc2c(NCCCN(Cc3ccccc3)Cc3ccc(Br)o3)ccnc2c1 [SJ000312671]

>  <target under test>
MAGE-A11:PCF11 interaction (GST-MAGE-A11 and FAM-PCF11_4) (Homo sapiens, UniProt P43364)

>  <percent inhibition (TR-FRET)>
-1.797

$$$$
>  <molecule>
CCCN(CCCNc1ccnc2cc(Cl)ccc12)Cc1cc(C(F)(F)F)ccc1OC [SJ000523012]

>  <target under test>
MAGE-A11:PCF11 interaction (GST-MAGE-A11 and FAM-PCF11_4) (Homo sapiens, UniProt P43364)

>  <percent inhibition (TR-FRET)>
30.3991

$$$$
>  <molecule>
CCCN(CCCNc1ccnc2cc(C(F)(F)F)ccc12)CC(C)CC (centres unmarked) [SJ000523081]

>  <target under test>
MAGE-A11:PCF11 interaction (GST-MAGE-A11 and FAM-PCF11_4) (Homo sapiens, UniProt P43364)

>  <percent inhibition (TR-FRET)>
22.2827

$$$$
>  <molecule>
CCCN(CCCNc1c2ccc(Cl)cc2nc2ccc(OC)cc12)Cc1ccc(Br)s1 [SJ000520924]

>  <target under test>
MAGE-A11:PCF11 interaction (GST-MAGE-A11 and FAM-PCF11_4) (Homo sapiens, UniProt P43364)

>  <percent inhibition (TR-FRET)>
-56.4502

$$$$
>  <molecule>
CSC(C)CCNCCCNc1ccnc2cc(C(F)(F)F)ccc12 (centres unmarked) [SJ000361125]

>  <target under test>
MAGE-A11:PCF11 interaction (GST-MAGE-A11 and FAM-PCF11_4) (Homo sapiens, UniProt P43364)

>  <percent inhibition (TR-FRET)>
24.4617

$$$$
>  <molecule>
CCCN(CCCNc1ccnc2cc(Cl)ccc12)Cc1ccc(OC)c(F)c1 [SJ000522994]

>  <target under test>
MAGE-A11:PCF11 interaction (GST-MAGE-A11 and FAM-PCF11_4) (Homo sapiens, UniProt P43364)

>  <percent inhibition (TR-FRET)>
15.1623

$$$$

For every item below, please supply its percent inhibition (TR-FRET).
1. CCCCCCN(CCC)CCCNc1ccnc2cc(C(F)(F)F)ccc12 [SJ000523083]
2. Cn1ccnc1CNCCCNc1ccnc2cc(Cl)ccc12 [SJ000521040]
3. C#Cc1ccccc1CN(CCC)CCCNc1ccnc2cc(Cl)ccc12 [SJ000523000]
4. Clc1ccc2c(NCCCNCc3csc4ccccc34)ccnc2c1 [SJ000521033]

a:
1. 34.9477
2. 1.449
3. 12.4462
4. 33.3803
